Numbers sourced from paper PMC8595825.

assay: In vivo pharmacokinetics in mice; details: mouse
READOUT_KIND: half-life

ENTRY_SMILES	OBSERVED_VALUE
CCCCCCCCn1c2c([n+](CCCC)c1C)C(=O)c1ccccc1C2=O.[Br-]	7 to 10 h

Continue with the molecule presented below.
## Task Which half-life value is on record for "CCCCn1c2c([n+](C3CCC4(CCCCC4)CC3)c1C)C(=O)c1ccccc1C2=O.[Br-]" ?
## Result 7 to 10 h

----------
experiment: Metabolic stability in rat microsomes; assay type: in vitro ADME
READOUT_KIND: half-life

ENTRY_SMILES	READOUT_KIND	OBSERVED_VALUE
CCCCCCCCn1c2c([n+](CCCC)c1C)C(=O)c1ccccc1C2=O.[Br-]	half-life	20 to 23 min

Continue with the compound presented below.
## Task Which half-life value is on record for "CCCCn1c2c([n+](C3CCC4(CCCCC4)CC3)c1C)C(=O)c1ccccc1C2=O.[Br-]" ?
## Result 20 to 23 min

----------
So I've got a bunch of compounds here, and I need their Vd values.
test: In vivo pharmacokinetics in mice; conditions: mouse

ENTRY_SMILES	OBSERVED_VALUE
CCCCCCCCn1c2c([n+](CCCC)c1C)C(=O)c1ccccc1C2=O.[Br-]	27 to 35 L/kg

## Task Which Vd value is on record for "CCCCn1c2c([n+](C3CCC4(CCCCC4)CC3)c1C)C(=O)c1ccccc1C2=O.[Br-]" ?
## Result 27 to 35 L/kg

----------
So I've got a bunch of compounds here, and I need their clearance values.
assay: In vivo pharmacokinetics in mice; conditions: mouse

COMPOUND	clearance
CCCCn1c2c([n+](C3CCC4(CCCCC4)CC3)c1C)C(=O)c1ccccc1C2=O.[Br-] [compound 61]	38 to 55 mL/min/kg

## Task Which clearance value is on record for CCCCCCCCn1c2c([n+](CCCC)c1C)C(=O)c1ccccc1C2=O.[Br-] [compound 32] ?
## Result 38 to 55 mL/min/kg

----------
test: In vivo pharmacokinetics in mice; details: mouse, po, 50 mg/kg
So I've got a bunch of compounds here, and I need their bioavailability values.

Quick request: bioavailability for each listed item, please.
1. CCCCCCCCn1c2c([n+](CCCC)c1C)C(=O)c1ccccc1C2=O.[Br-]
2. CCCCn1c2c([n+](C3CCC4(CCCCC4)CC3)c1C)C(=O)c1ccccc1C2=O.[Br-]

## Result
1. 1 to 2%
2. 1 to 2%
